Values compiled from the DeepSol protein solubility set.

- test.method.notes: soluble on expression in E. coli; label from the status in PepcDB or PDB records
quantity: soluble on expression in E. coli

MSLEKSSRINGGKMNREEVKDSVLLGDSLEIMRRIDDCIYDLIFLDPPYYLQMTPKRLKRWNNRSVPQTVREYWDAFPSFEAYDSFISSVLKEAKRLMSDTSTIWAIGTYHNIFRIGKIMQDMGFWILNDVVWIKTNPMPNWLGVRFTNSTETLIWATKGKEQKNYTYNRNLAKEFGLGKTANNVWVMKTSRGNERVRDENRKSVHPAQKPLELMKRIILSSTKEGDLILDPFAGVGTTGVAASMLGRNFTLIEKDPVYYRAMLSRFSRFGIRYTEKIEGHHHHHH : not soluble
AHHHHHHGSKIARVNGLWITIPNVRYSFFNTPYIGHRIGTAVDVYFEDRALFPFEEGKLIEVRKIRTPRYIPVDHDYLMVFKLGEFCLKVLHVDPSVKIGEKVFLGDEIGKLRLSGFFSPWSDKHAHFEVRDCNDRYRARGAFPLFPEVKPLVPIVKGNTFEVVERKGHYLWLKPLETKGKGMTPLGNIEGGLPHYRYGAIFSGREGKLFGIDVKAQEILENGVGIFKPNFEVLANGVKVRGIGVYCNEERVKLIGGNFEVGDIIKIEIKARLGT : not soluble
MAHHHHHHMFSPVYEDVSGLFGHPMPISGFGPSTELQFPQTSYMTTTTNAPQTPTQQQQQQLAGRATVYSLVDASGVQLHRQAAPPQQIPMSSVPFGAFDGASIVPYEVFMQHQQQQQLAAAGKPTAVHAQDGVKYYLSSSTGAPVMASAGPAATTQANIMQMQQHGGTLYTLESNGTTTALTSTPPAGGLFSGAAAANGAPPSGEYPFYAAATGFLSSGPLGMAPATVGSASVTPYAIQGHMPSASPRARGAVNRSPAATIAGNQHHSNSGNNSSSASTRRENQATLHEM : not soluble

###

- test.method.notes: soluble on expression in E. coli; label from the status in PepcDB or PDB records
quantity: soluble on expression in E. coli

GHFAPQQMKEAIEIYKTLFEPSDVLDEPYVIVCLNTIVAENDDEAQYLASSMAQVMVSITRGRMQPVQPPTHDLQNILTPREYAMAMERQKISLIGSENTVQQKIQDFMETYGEVNEIMAISYIYDKDMQLDSYRRFKN : not soluble
MGSDKIHHHHHHDMNKLDSDYSVYTDYDNSVHFNEFSTYYLPDSILVPDNSLKANYWKDENAQNIISAVAHEMEQKGYVRTEDKEKANVGIQLSYAQQRIQMTTGGWYGGWWDAGFWGPYWGGGWYYPYPVTYSYDTGTLIMEMVDLRQPADKSNQNKLPVIWHAYASGLLYGNSHFNMQLTLNAVNQAFAQSPYLSNKQ : not soluble
MGSDKIHHHHHHQVSGDVVKIGILNDQSGLYADLAGAGSVQAARMAIEEFGGQVLGKKIELVWADHQNKADIGAGIARAWFDREGVDAIADFSNSSVGFAVQGLANERKKITLVAAGSSDFTGKACSPFSTQWVYNSYSNGYGLARLLASRGMDSVFLLTVDYTFGHAFANDVRKAVTENGGKVLGEVRFPLNSFDLSSYLLQAQASKAKLIVTAAAGSDMTSTVKQANEFGITPGQALAAPAVFITDVNSMGLQAAQGLQFVTAFYWDRTPDSRAWAEKFFARQKAMPSMTQAGVYSAVRHYLKAVEAAKTDDAVAVAAKMRELPVRDMNIENGRVREDGQVMHDMYLVEVKKPDESRRAWDYYKVLTTVPADQAFQALADSACPLVGKQ : not soluble

###

- test.method.notes: soluble on expression in E. coli; label from the status in PepcDB or PDB records
quantity: soluble on expression in E. coli

MGSDKIHHHHHHEDDNIRPFGKDVEAGAPGVVSEIKVKNIPGGAVISYQLPDNPDIMYVRARYKVGQGKEMEARASVYANELTVNGFGDMNEHEVELSCVDRMENEGATTVAVVTPLKPSVLTTFESLEVNATFGGVYVNFKNPEKASLSIHVVTTDSLNQPYEAHVQYTQAEKGPFYVRGFKAEERMFDIYVVDRWGNSSDTLYNVLTPYEETRLNKKLFYPYILPNDVACNAWGGNLAYAWNDDYTPALFVHSPGGDTFPMWFTFDMGVTAKLSRYKFYHLFMEEHAFQRGNLKTWEVWGRTDTPPADGSWDGWTKLMDCESHKPSGLPVGQHTAEDWEYLQAGEDFEFPAEAPPVRYIRFKVLETWGGMDFIHFTEFTFWGNVISNN : not soluble
MGSDKIHHHHHHMCYTPACLFSRVLHSSTRWRGGRVVECVALEKRSTRKGTVGSNPTLFAKKEAPRPAQQAGFSFVDSVSQVSGAAIVQPMTRFAWTPETIPWQETAPDGTRYALLEGVREAGTFTYAFFLPAGFWDEAHWHSTDARVFVMQGELRLGYGDRLDKEAATSYPAGSALLVPAEHRHHDGAEVDTLILGVASGSWFTRYVNSANQGSAGTV : not soluble

###

- test.method.notes: soluble on expression in E. coli; label from the status in PepcDB or PDB records
quantity: soluble on expression in E. coli

Some solved entries appear below for comparison.
MGSDKIHHHHHHMTITTQSLPVVRRHTIHFLEKAKNSQAVYLSTDIDASRIQEVKRRYEQASIKISYISFLLFAISRAIEVFPEVNSSVQGRWHLKRWQFSTIDAKVTLDKLAGQERMVVSSVIPETNKKSLLAIQDEINELKIASFETSDRFQSIRKLQRLPLWIGRIIYRKILQNPITWQQTQGSFTITSLGHVPIQSFFPITTNTVCFGVGSIRECAVVREGQVVVRPMLPLSMTFDHRAIDGALASEFLYRIKQNVEEWEVEAWEDDQKNQAMM : not soluble
MGSDKIHHHHHHMSVLQELTKKKYSSLKTMFDDKYCPTFVYSILDQTIPGAVYADDQTFPKSFFIGTESGIYFIAGDQGNRDFHDFIAGYYEEQVKSSKRFTLFSSSDTWDSVLKPILKDDLNQMRRAAFSYQPKSFKKTLQLPKGLVLKRIDEDIISHSTAFNSAYYEEYWNSVSQFASKGFGFAVLHGNHVVSECTSIFLGHNRAEMDIYTLEEYRGLGLAYCVANRFIAFCMENGIVPSWDCDICNNSSIALAAKLGFKTVTEYTIYYSG : not soluble
MGSDKIHHHHHHMNLVMEKTFEQYEKLFSMEEQKREDVFRYTMMRPFEKMWTAIQVPLKAKEPNGYDVIMAAKMLGYLDVRDAESGQKALQILKESHVSETAESALRQCIFFAEREQLRVNAKEIKFGLYIADPNKLQLQKGYCGFGGIPGFIHVWINPNSYNLPRIPSIIAHEFHHNVRFSYIDFHHGSVSVGDYLVIEGLAESFARELFGTERLGPWVTRFDHEDLQYSIDVINEVLDVKGFSEVSRYMFGDPIANDQGFKPAGLSAFAGYAVGYHAVQSFMNQHHITISEATRLDAKTIISQCGLFLHEKSVTYSGAF : not soluble
MGSDKIHHHHHHMRKISIVIPVYNTEKYLKLSVDSVLSQSYQDWELILVDDGSKDGSGAICDKYASEDSRIKVYHTVNQGVTAARGYGVEQSTGEWICFLDADDTLADDALQVMLGKSADCDIVIGNKRIVSGNDVTEEWMNQDDRQLQAVEFLDGLIRNKISQYITGRIFRRILFDNGTICIPRELIMAEDFIMNVQLGNKAKKIAVIRDMVYGYHVYGESVSHTFRTNLEYESRFCDCLFSALKTGGYYEEVKEAFTFQKVRALKSAFMAQQGRVNLRHPFLQEVRKEAKSIGLSRGWKLFLYLLPLKYIGYIFFRSLNK : not soluble

Which soluble on expression in E. coli value belongs to MRVRNRKGATELLEANPQYVVLNPLEAKAKWRDLFGNDNPIHVEVGSGKGAFVSGMAKQNPDINYIGIDIQKSVLSYALDKVLEVGVPNIKLLWVDGSDLTDYFEDGEIDRLYLNFSDPWPKKRHEKRRLTYKTFLDTFKRILPENGEIHFKTDNRGLFEYSLVSFSQYGMKLNGVWLDLHASDFEGNVMTEYEQKFSNKGQVIYRVEAEF ? soluble

###

- test.method.notes: soluble on expression in E. coli; label from the status in PepcDB or PDB records
quantity: soluble on expression in E. coli

Some solved entries appear below for comparison.
MGHHHHHHSHMIINWNQVSVLWKCLLKQSASYQDRRQSWRRASMKETNRRKSLHPIHQGITELSRSISVDLAESKRLGCLLLSSFQFSIQKLEPFLRDTKGFSLESFRAKASSLSEELKHFADGLETDGTLQKCFEDSNGKASDFSLEASVAEMKEYITKFSLERQTWDQLLLHYQQEAKEILSRGSTEAKITEVKVEPMTYLGSSQNEVLNTKPDYQKNYRTRAKSLTVWSW : not soluble
MESVYLFSSGTLKRKANTICLETESGRKYIPVENVMDIKVFGEVDLNKRFLEFLSQKRIPIHFFNREGYYVGTFYPREYLNSGFLILKQAEHYINQEKRMLIAREIVSRSFQNMVDFLKKRKVRADSLTRYKKKAEEASNVSELMGIEGNAREEYYSMIDSLVSDERFRIEKRTRRPPKNFANTLISFGNSLLYTTVLSLIYQTHLDPRIGYLHETNFRRFSLNLDIAELFKPAVVDRLFLNLVNTRQINEKHFDEISEGLMLNDEGKSLFVKNYEQALRETVFHKKLNRYVSMRSLIKMELHKLEKHLIGEQVFGSEE : soluble
MGSDKIHHHHHHMLRLSALGDVCNLVPTIRVLQRLWPDARITWIIGKGEHSLLAGLSGVEFIVYDKATGLAGMREVWRQLGDTRFDVLLHMQQALRASVLSLGLKADLRIGYDKARAKDWQHWFTHRQLTPHPRAHVLDSFLDFARLLGGAERVDAEPLRWDLAIPDTAYQEAARVTGDAPYIVISPCANPRLRNFRNWSAEGYAAVISHAWQEHGLRTVMTGGGSTQEQEMGARIRALCAEEAVIDAIGATSLKGLLAMLDRARMVIAPDSGPVHMANALRTPTLGLYATTNPERAAPYCWRDFVVDRYPDAVRRYLHKSPEAITWGARVRHPDAMSLIHADDVIAQFDALLNAAPSASSRPEPDHET : not soluble
MGLFDRLKRVVGANVNDLINKAEDPEKMLEQAILEMQEDLVQLRQGVAQAIAAQKRTEKQYNDAQNEINKWDRNARLALQKGDENLARQALERKKSFTDTSTSLKTSLDQQTIQVDTLKKNLIQLESKISEAKTKKEMLKARITAAKAQEQLGSMVVSMNSSSAMAAFERMEEKVLMQEARAQSTAELVGADLETQFAQLESGSDVDDELAALKASMLPPAPAPQGQLPPSQATTAKPTEPIDSDLEALKRQLDQM : not soluble
GMTTWKELTDNNPAHSENYAQRWRNLAAAGNDIYGEARLIDAMAPRGAKILDAGCGQGRIGGYLSKQGHDVLGTDLDPILIDYAKQDFPEARWVVGDLSVDQISETDFDLIVSAGNVMGFLAEDGREPALANIHRALGADGRAVIGFGAGRGWVFGDFLEVAERVGLELENAFESWDLKPFVQGSEFLVAVFTKK : soluble
MTLAEAADAINFGLAGRVVLVTGGVRGVGAGISSVFAEQGATVITCARRAVDGQPYEFHRCDIRDEDSVKRLVGEIGERHGRLDMLVNNAGGSPYALAAEATHNFHRKIVELNVLAPLLVSQHANVLMQAQPNGGSIVNICSVSGRRPTPGTAAYGAAKAGLENLTTTLAVEWAPKVRVNAVVVGMVETERSELFYGDAESIARVAATVPLGRLARPADIGWAAAFLASDAASYISGATLEVHGGGEPPPYLGASSANK : soluble
MSLGDQTLVRELSPLKNKGESTFRMGLYIRDSAAGVGTLTFYDPVSKKYGALGHVISDVDTKKPIVVHDGQIIRSSVTSIDKGSNGDPGEKLASFSNQRNTLGTIEKNSSFGIFGTLTEKDLKNHVSDEALPVTLSNHVKEGPAKILTVVEGEKVEEFDIEIVSSVPQKQPATKGLVIKVTDPKLLNTTGGIVQGMSGSPIIQDGKLVGAVTHVFVNDPTSGYGCHISWMLEEAGITFDQSKAKASEGHHHHHH : soluble
MKQPEEELQETLTELDDRAVVDYLRHHPEFFIRNAHAVEAMRVPHPVRGTVSLVEWHMARARNHINVLEENMTLLMEQAHANESLFYRLLHLQSRLVAADSLDEMLVRFHRWARDLGLAGATLRLFPDRWRLGAPSRYTHLALNRQAFEPLRIQRLGQSQHYLGPLNGPELLVVLPEAKAVGSVAMSMMGSDGGLGVILFSSRDPHHYQPGQGTQLLQEIALMLPELLERWIKRVLEHHHHHH : not soluble

Which soluble on expression in E. coli value belongs to MSLLSYRHGFHAGNQADVFKHSALFSFLKVYTQKQKPFTAFDLNAGSASYNLLSEWSLKTGEAEEGIIRFLDLYKKEKLPLPIPEGFKAYLDFCLKNYDENSSYAGSPEIIRSFLQKESNLILCDLHSAEAEKLKELYKRVENVHVHKRDCYEAVRALTPPLPIRGFALFDPSYEVDSDYTAIAESVEKVCKKWPIGIFIIWYPILNHKTEECRNLKDRISKAMNNKVLNIEVKHFSNKIDSENEYGLQGSGLLITNPPWGLEEKLKEICEYVEKVSAGLDEGHHHHHH ? soluble

Which soluble on expression in E. coli value belongs to MSHELVELLRSVLKEELQPIHERLDRLEAGQQRLEERQQRLEERQQRLEERQQRLEEQQQRLGEKLDHFIIETRSHFKKIEDKLAGHRRMFDILPHDWRDTTMAIEYLKHKISQHDLEIYQLKKRLELQETK ? not soluble

Which soluble on expression in E. coli value belongs to MAIQFIVSNKYTAEVSKQLNDSQNWVLDSGIYYEDHNNHIVSSPINSATKPQNTREEWLWIPPHCQVVVCSTSSLKSFLGCKASEDLDRVFGDHPLWLDQLRPLSNLLENSLIDLLSRAPFEQSSKRNIQSMERGNPVMNWNVMQVEEEDTRGEQRVAASSSLSSSFDWNTFLRDRCGLSEEDVAYCFRKLSRFGRVSLSRLNEDSLLRMGINDPTVIAKLLIGITEEFS ? not soluble
